Values compiled from patent US20220073643A1.

- system name: human Claudin18.2 (human)
- procedure summary: cell-based or functional assay
measured parameter: CDC % Relative activity (%)
Respond with the bare value in %.

input: Need CDC % Relative activity, item 253E4F7 (antibody, V domains shown) VH: EIQLQQSGPELMKPGASVKMSCKASGYSFTSYYIHWVKQSHGKSLEWIGYIDPFNGGTRYNQKFEGKATLTVDKSSTTAYMHLSSLTSEDSTVYYCASLRFLAYWGQGTLVTVSA VL: DIVMTQSPSSLTVTAGEKVTMTCKSSQSLLNSGNQKNYLTWYQQKPGQPPKVLISRASTRQSGVPDRFTGSGSGTDFTLTISSVQAEDLAVYYCQNDYSYPLTFGAGTKLELK
output: 174

New cases:
input: Need CDC % Relative activity, item 421H4G3 (antibody, V domains shown) VH: DVQLVESGGGLVQPGGSRKLSCAASGFSFSGFGLHWIRQTPEKGLEWVAYISSGSRPIYYADTVKGRFTISRDNPKNTLFLQMTSLRSEDTAMYFCARFYFGNSFDHWGQGTLVTVST VL: DIVMTQSPSFLTVTAGEKVTMSCRSSQSLLNSGNQRNYLTWYQQKPGQPPKLLIYWASTRESGVPDRFTGSGSGTDFTLTINSVQAEDLALYYCQNAYSFPLTFGAGTKLELK
output: 65.9

input: Need CDC % Relative activity, item 231C11E9 (antibody, V domains shown) VH: EVMLVESGGGLVKPGGSLKLSCAASGFTFNNYVMCWVRQTPEKRLEWVATISSGNFYTYYPDSVKGRFTISRDNAKNTLYLQMSSLRSEDTAIYYCASLGRGNALDNWGQGTSVTVSS VL: DIVMTQSPASLTVTAKEKVTMSCRSSQSLLNSGNQKNYLTWYQQKPGQPPKLLIYWASTRESGVPDRFTGSGSGTDFTLTISSVQAEDLAVYYCQNDYSYPFTFGSGTKLEIK
output: 83.7
